The reported measurements were obtained from PubChem BioAssay.

Assay: basal 3T3-L1 adipocyte mitochondrial potential changes, profiling panel, cell-based, JC-1 fluorescence, 3T3-L1 adipocytes, 24 h, 100 nL compound (AID 1168); note: test concentration not given here
Conditions: JC-1 mitochondrial fluorescence, higher = more signal, called active from +8 up or from −8 down
Reported values of z-score for individual entries
// response body must contain only the number

The following compounds have reported results that may help.
C=C(C(=O)CC[C@@H](OC(=O)c1ccccc1-c1ccccc1C(=O)O)c1ccc(OCCO)cc1)C(C)C    -1.2
C=C(C(=O)CC[C@@H](OC(=O)c1cccnc1)c1cccc(OCCO)c1)C(C)C    -0.227
Cc1ccc(S[C@]2(C(=O)NC3CC3)CC(=O)N(C3Cc4ccccc4C3)[C@@H]2c2ccc(CO)cc2I)cc1    -0.411
C=C(COC)/C(=C/C[C@@H](OC(=O)c1ccncc1)c1ccccc1OCCO)c1cnc2ccccc2c1    -1.16
COC(=O)C1(CC(C)C)C=C2C(=C(C)C(=O)C2C)CN1 (configuration not stated)    -1.83

Data request: Can you share its z-score? I mean this compound: COCCOC(=O)N1C(=O)[C@@]2(c3ccccc31)[C@H](C(=O)Nc1nc3ccccc3s1)[C@H]1C(=O)O[C@H](c3ccccc3)[C@H](c3ccccc3)N1[C@@H]2c1ccccc1OCCO
Data returned: 2.21

Data request: Can you share its z-score? I mean this compound: C=CCC(OC(C)=O)[C@@H]1[C@@H](N(Cc2ccc(-c3ccccc3)cc2)C(=O)Cc2ccc(OC)cc2)c2cc(OCCCO)ccc2N1C(=O)c1ccc2ccccc2c1 (some centres not stated)
Data returned: -0.81

---

Test: binders of probe aHhip on microarray, primary screen, stem cell growth factor project, biochemical, small-molecule microarray, fluorescence 635/667 (AID 1087);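 note: score merges spot fluorescence at 667nm with spot signal to noise ratio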
Conditions: higher = more signal
Use -0.2 as the dividing line for composite z-score, with the line itself on the Condition met side and lower values as Condition not met.

CCCN1C(=O)[C@@]2(c3ccc([N+](=O)[O-])cc3)CC(=O)N(C3CCCCC3)[C@@H]2c2ccc(CO)cc21    Condition met
CC[C@@H](O[Si](C#C[Si](C(C)C)(C(C)C)C(C)C)(C(C)C)C(C)C)c1cn([C@H](C)c2ccccc2)nn1    Condition met
C[N+](C)(C)CCCC[C@@H]1NC(=O)[C@H]2C[C@@H](C(=O)NCCCCCN)[C@@H](c3ccc(O)cc3)N2C1=O    Condition met
COc1ccc(C(O)C2C=CC3C(=O)N(c4ccccc4)C(=O)C3N2Nc2ccccc2F)c2ccccc12 (configuration not stated)    Condition not met
CCc1cccc(NC(=O)O[C@H]2[C@H](OC(=O)Nc3ccccc3-c3ccccc3)[C@H](OC(=O)Nc3ccccc3-c3ccccc3)[C@@H](OC)O[C@@H]2CO)c1    Condition not met

Data request: Decide: composite z-score of COc1cc(Cc2cc3c(c(-c4ccccc4)n2)[Si](C(C)C)(C(C)C)OC3)cc(OC)c1OC >= -0.2?
Data returned: Condition met

Data request: Decide: composite z-score of CCOC(=O)C1=C[C@@H](C(C)(C)C)N(S(=O)(=O)c2ccc(C)cc2)[C@H]1c1ccc(OC)cc1 >= -0.2?
Data returned: Condition not met

---

Molecular target: Carbonic anhydrase 2 (Homo sapiens) (UniProt P00918)
Assay: CAII small-molecule binders, profiling panel, biochemical, small-molecule microarray, Alexa647-labelled CAII (AID 1122)
Settings: CAII-A647 binding fluorescence, higher = more signal
Reported values of composite z-score for individual entries
// response body must contain only the number

CCCNC(=O)[C@@]1(Sc2ccc(C)cc2)CC(=O)N(Cc2cc(C(F)(F)F)cc(C(F)(F)F)c2)[C@@H]1c1ccc(CO)cc1    0.504

Data request: Can you share its composite z-score? I mean this compound: C=C(CCCC)/C(=C/C[C@@H](OC(C)=O)c1cccc(OCCO)c1)c1cc(C(=O)OC)ccc1OC
Data returned: 0.561

Data request: Can you share its composite z-score? I mean this compound: CN1C(=O)C2C=CC(C(O)c3cccs3)N(N(c3ccccc3)c3ccccc3)C2C1=O (centres undefined)
Data returned: 0.714

Data request: Can you share its composite z-score? I mean this compound: CC1CC/C=C\[C@H]2OC34C=CCN(CCN5CCOCC5)C(=O)[C@H]3N(C(CO)C(C)C)C(=O)[C@@H]4C2C(=O)O1 (some centres undefined)
Data returned: 0.854

---

Reported values of composite z-score for individual entries
Target: Torsin-1A-interacting protein 1 (Homo sapiens) (UniProt Q5JTV8)
Sequence (Q5JTV8 whole entry, looked up): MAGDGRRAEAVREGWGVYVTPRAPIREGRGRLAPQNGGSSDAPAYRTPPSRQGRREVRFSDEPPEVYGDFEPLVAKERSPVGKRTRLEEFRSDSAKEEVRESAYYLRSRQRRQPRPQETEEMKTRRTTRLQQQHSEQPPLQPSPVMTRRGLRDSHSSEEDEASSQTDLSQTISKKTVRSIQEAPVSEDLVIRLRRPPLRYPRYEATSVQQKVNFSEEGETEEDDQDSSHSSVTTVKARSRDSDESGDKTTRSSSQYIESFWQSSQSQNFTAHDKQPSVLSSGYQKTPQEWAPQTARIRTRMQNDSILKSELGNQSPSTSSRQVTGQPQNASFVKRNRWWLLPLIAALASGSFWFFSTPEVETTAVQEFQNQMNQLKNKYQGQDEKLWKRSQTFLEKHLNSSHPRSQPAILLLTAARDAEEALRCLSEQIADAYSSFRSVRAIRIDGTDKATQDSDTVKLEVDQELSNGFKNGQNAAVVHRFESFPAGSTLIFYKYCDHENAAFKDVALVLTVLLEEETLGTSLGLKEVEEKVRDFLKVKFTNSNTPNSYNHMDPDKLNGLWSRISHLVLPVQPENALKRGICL
Test: LAP1 binders from COS7 cell lysate, primary screen, small-molecule microarray, 635/667 nm fluorescence (AID 1116)
Conditions: COS7-hLAP1 lysate binding, 635 nm fluorescence, higher = more signal

The following compounds have reported results that may help.
O=C1N(Cc2ccccc2)Cc2ccccc2C[C@@]12COC(c1ccc(OCCCO)cc1)=N2    0.724
CCOC(=O)C[C@H]1[C@H](OC(=O)Cc2ccc3c(c2)OCO3)[C@@H](NC(=O)CC(C)C)c2cc(OCCCO)ccc2N1C(=O)c1ccc2ccccc2n1    0.633
CCOC(=O)C1=CCC(c2ccncc2)N(S(=O)(=O)c2ccc(C)cc2)C1 (stereo not given)    2.15

Data request: Can you share its composite z-score? I mean this compound: O=C1O[C@H](c2ccccc2)[C@H](c2ccccc2)N2[C@H]1[C@@H](C(=O)O)[C@]1(C(=O)Nc3ccc(C#CC4(O)CCCCCC4)cc31)[C@H]2c1ccccc1OCCO
Data returned: 0.727

Data request: Can you share its composite z-score? I mean this compound: CN1C(=O)C2C=CC(C(O)c3ccc([N+](=O)[O-])cc3)N(Nc3ccccc3)C2C1=O (stereo not given)
Data returned: 0.0788

Data request: Can you share its composite z-score? I mean this compound: C=C(CCCC)C(=O)CC[C@@H](OC(C)=O)c1ccc(OCCO)cc1
Data returned: 3.18

Data request: Can you share its composite z-score? I mean this compound: COCCCNC(=O)[C@@]1(CCC(=O)OC(C)(C)C)N=C(c2ccc(OCCCO)cc2)O[C@H]1c1ccccc1
Data returned: 1.49

Data request: Can you share its composite z-score? I mean this compound: CS(=O)(=O)CCOC(=O)C1=CC(CCCO)=CC(C2CC2)N(Cc2sc3ccccc3c2Cl)C=C1C(=O)OCCS(C)(=O)=O (stereo not given)
Data returned: -0.643

Data request: Can you share its composite z-score? I mean this compound: COCCOC(=O)N1C(=O)[C@@]2(c3cc(C#CC4(O)CCCCCC4)ccc31)[C@H](C(N)=O)[C@H]1C(=O)O[C@H](c3ccccc3)[C@H](c3ccccc3)N1[C@@H]2c1ccc(OCCO)cc1
Data returned: 0.883

Data request: Can you share its composite z-score? I mean this compound: CCOC(=O)C1=C[C@@H](C(C)(C)C)N(S(=O)(=O)c2ccc(C)cc2)[C@H]1c1ccc(OC)cc1
Data returned: 1.97

Data request: Can you share its composite z-score? I mean this compound: COc1cc2c(cc1O)C(C)N(Cc1sc3ccccc3c1Cl)CC2 (stereo not given)
Data returned: -0.216

Data request: Can you share its composite z-score? I mean this compound: COc1ccc(CCNC(=O)[C@@H]2c3ccccc3C(=O)N(Cc3cc(F)cc(C(F)(F)F)c3)[C@H]2c2ccc(CO)cc2)cc1
Data returned: 1.59

Data request: Can you share its composite z-score? I mean this compound: CN(C)CCCC[C@@H]1NC(=O)[C@H]2C[C@@H](C(=O)NCCCCCCNC(=O)CS)[C@@H](c3cccc(OCCO)c3)N2C1=O
Data returned: 0.358

Data request: Can you share its composite z-score? I mean this compound: [N-]=[N+]=Nc1ccccc1C[C@]1(C(=O)N2CCCCC2)N=C(c2ccc(OCCCO)cc2)O[C@H]1c1ccccc1
Data returned: 0.824

Data request: Can you share its composite z-score? I mean this compound: Cc1ccc(S[C@]2(C(=O)NCc3ccccc3)CC(=O)N(Cc3ccccc3Cl)[C@@H]2c2ccc(CO)cc2)cc1
Data returned: -0.0706

---

Reported values of composite z-score for individual entries
Test: small-molecule microarray binders of probe aNog, primary screen, biochemical, biotinylated probe, 635/667 nm fluorescence (AID 1115);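 note: probe is biotinylated aNog protein used at 0.15 µg/mL for 1 h at 4 C; z-score combines 667 nm fluorescence of each spot with its signal to noise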
Details: higher = more signal
// response body must contain only the number

The following compounds have reported results that may help.
COC(=O)[C@H](Cc1ccccc1)N1CC(C)(OC)O[C@@H](Cc2ccccc2)[C@H]1/C=C/C1CC1 (some centres not stated)    0.0299
COC(=O)[C@@]1(Cc2ccc(F)cc2)[C@H]2c3cc(C(=O)N(C)C)n(Cc4ccsc4Br)c3C[C@H]2CN1C(=O)c1ccccc1    -0.0209
COC(=O)C(CC#Cc1ccc2c(c1)[C@]1(C(=O)N2)[C@H](C(=O)N2CCN(c3ncccn3)CC2)[C@H]2C(=O)O[C@H](c3ccccc3)[C@H](c3ccccc3)N2[C@@H]1c1ccc(O)cc1)C(=O)OC    1.16
O=C(c1ccccc1)N1Cc2ccccc2C[C@@]2(N=C(c3ccc(OCCCO)cc3)O[C@H]2c2ccccc2)C1=O    -0.432
COC(=O)C(CC#Cc1ccc2c(c1)[C@]1(C(=O)N2)[C@H](c2ccc(OCCO)cc2)N2[C@H](c3ccccc3)[C@H](c3ccccc3)OC(=O)[C@H]2[C@@H]1C(N)=O)C(=O)OC    -0.14
CC(C)Cc1ccc(CN2CC[C@@H](NC(=O)c3ccccc3)C2)cc1    -0.367

// next entry
Data request: Can you share its composite z-score? I mean this compound: COC(=O)c1c2oc(c1C(=O)OC)C(=O)N[C@H](Cc1ccccc1)Cn1cc(nn1)C1(CCCCC1)NC(=O)N[C@H](CO)CC2
Data returned: 0.0119
